TESTED_SYSTEM: L-selectin (LS-Rg) (Homo sapiens)
Sequence: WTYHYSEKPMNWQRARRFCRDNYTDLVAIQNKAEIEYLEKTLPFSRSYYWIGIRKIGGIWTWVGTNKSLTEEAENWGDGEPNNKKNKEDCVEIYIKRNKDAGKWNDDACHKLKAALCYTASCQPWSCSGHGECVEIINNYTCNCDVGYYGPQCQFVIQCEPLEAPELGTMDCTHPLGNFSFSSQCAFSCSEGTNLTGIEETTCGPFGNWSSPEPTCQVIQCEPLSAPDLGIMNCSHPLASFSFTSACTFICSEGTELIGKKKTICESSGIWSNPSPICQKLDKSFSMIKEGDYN
RUN_DESCRIPTION: filter
EXPERIMENTAL_PARAMETERS: 2'-NH2 all C and U; 4 C, HSMC
METRIC_NAME: Kd (nM)
Express it in nM; write the number only.

Notebook: GGGAGGACGAUGCGGCCGUACAUGGUAARCCUCGAAGGAUUCCCGGGAUGAUCCCCAGACGACUCGCCCGA [F14.27] , Kd read as 145

###

TESTED_SYSTEM: wheat germ agglutinin (WGA) (Triticum vulgare)
Sequence: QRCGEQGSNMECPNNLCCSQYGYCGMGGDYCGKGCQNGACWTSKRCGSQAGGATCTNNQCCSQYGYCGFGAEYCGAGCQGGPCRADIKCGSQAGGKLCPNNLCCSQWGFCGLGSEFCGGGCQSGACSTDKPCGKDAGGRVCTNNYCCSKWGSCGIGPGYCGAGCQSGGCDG
RUN_DESCRIPTION: filter
EXPERIMENTAL_PARAMETERS: 2'-NH2 all C and U; no binding at 36 uM WGA monomer
pKd: −log10 of the molar value.
METRIC_NAME: pKd

Notebook: GGGAAAAGCGAAUCAUACACAAGANNNNNNNNNNNNNNNNNNNNNNNNNNNNNNNNNNNNNNNNNNNNNNNNNNGCUCCGCCAGAGACCAACCGAGAA [random 50N9 RNA pool] , pKd read as < 2.40

###

TESTED_SYSTEM: L-selectin (LS-Rg) (Homo sapiens)
Sequence: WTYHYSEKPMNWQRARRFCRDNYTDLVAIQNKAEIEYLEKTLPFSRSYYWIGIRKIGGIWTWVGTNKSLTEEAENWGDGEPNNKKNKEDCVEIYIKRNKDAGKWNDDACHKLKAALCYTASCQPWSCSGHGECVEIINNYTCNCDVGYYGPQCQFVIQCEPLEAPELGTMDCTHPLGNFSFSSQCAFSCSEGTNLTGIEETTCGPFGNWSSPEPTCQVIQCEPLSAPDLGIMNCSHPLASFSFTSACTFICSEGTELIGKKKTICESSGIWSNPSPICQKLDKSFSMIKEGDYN
RUN_DESCRIPTION: inhibition
EXPERIMENTAL_PARAMETERS: 2'-NH2 all C and U; inhibits LS-Rg binding to immobilized sialyl-Lewis X, room temp, Ca/Mg
METRIC_NAME: IC50 (nM)
Express it in nM; write the number only.

Notebook: GGGAGGACGAUGCGGUAACAACAAUCAAGGCGGGUUYACCGCCCCAGUAUGAGUACAGACGACUCGCCCGA [F14.12] , IC50 read as 10

###

TESTED_SYSTEM: L-selectin (LS-Rg) (Homo sapiens)
Sequence: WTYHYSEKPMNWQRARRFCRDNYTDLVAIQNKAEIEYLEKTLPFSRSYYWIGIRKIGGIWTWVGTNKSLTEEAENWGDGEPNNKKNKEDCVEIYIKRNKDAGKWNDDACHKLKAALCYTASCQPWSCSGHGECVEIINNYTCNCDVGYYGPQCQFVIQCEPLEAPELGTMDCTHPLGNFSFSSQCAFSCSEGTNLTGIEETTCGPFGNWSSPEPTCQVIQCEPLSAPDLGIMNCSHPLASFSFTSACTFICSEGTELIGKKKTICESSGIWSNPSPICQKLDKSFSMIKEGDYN
RUN_DESCRIPTION: filter
EXPERIMENTAL_PARAMETERS: 2'-NH2 all C and U; 4 C, HSMC; biphasic, fraction 0.74, low affinity Kd 270 nM
METRIC_NAME: Kd (nM)
Express it in nM; write the number only.

Notebook: GGGAGGACGAUGCGGAAGUGAAGCUAAAGSGGAGGGCCACUCAGAAACGCACCACAGACGACUCGCCCGA [F14.13] , Kd read as 1.3

###

TESTED_SYSTEM: CD22beta (CD22beta-Rg) (UniProt P20273)
Sequence (P20273 20-687): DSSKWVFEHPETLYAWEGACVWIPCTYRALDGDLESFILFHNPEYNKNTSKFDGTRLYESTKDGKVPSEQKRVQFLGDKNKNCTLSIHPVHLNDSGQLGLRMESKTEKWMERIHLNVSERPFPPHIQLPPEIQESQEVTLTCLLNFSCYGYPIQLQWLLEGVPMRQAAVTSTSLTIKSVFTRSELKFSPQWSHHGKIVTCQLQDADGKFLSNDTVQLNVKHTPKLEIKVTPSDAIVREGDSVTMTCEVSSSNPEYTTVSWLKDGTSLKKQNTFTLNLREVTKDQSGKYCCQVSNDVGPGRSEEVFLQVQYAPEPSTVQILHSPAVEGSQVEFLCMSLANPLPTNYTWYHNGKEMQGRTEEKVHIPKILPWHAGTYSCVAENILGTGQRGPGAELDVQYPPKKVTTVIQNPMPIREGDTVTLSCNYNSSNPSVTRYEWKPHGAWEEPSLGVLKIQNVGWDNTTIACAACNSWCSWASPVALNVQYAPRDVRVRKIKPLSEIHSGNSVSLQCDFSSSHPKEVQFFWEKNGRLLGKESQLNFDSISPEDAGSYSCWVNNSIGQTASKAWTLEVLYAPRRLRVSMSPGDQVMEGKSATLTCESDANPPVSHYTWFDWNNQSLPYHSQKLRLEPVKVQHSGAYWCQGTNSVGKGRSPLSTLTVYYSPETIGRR
RUN_DESCRIPTION: filter
EXPERIMENTAL_PARAMETERS: 2'-NH2 all C and U; <5% bound at up to 660 nM, 4 C
METRIC_NAME: Kd

Notebook: GGGAGGACGAUGCGGUAACAACAAUCAAGGCGGGUUYACCGCCCCAGUAUGAGUACAGACGACUCGCCCGA [F14.12] , Kd read as > 20 µM

###

Test system: Datura stramonium lectin (Datura stramonium)
RUN_DESCRIPTION: filter
EXPERIMENTAL_PARAMETERS: 2'-NH2 all C and U; HBSS, room temp
METRIC_NAME: pKd
Hey, just a heads up that pKd is the negative log base 10 of the concentration in molar.

Tested system Datura stramonium lectin (Datura stramonium); pKd recorded for GGGAAAAGCGAAUCAUACACAAGAUUGGUCGUACUGGACAGAGCCGUGGUAGAGGGAUUGGGACAAAGUGUCAGCUCCGCCAGAGACCAACCGAGAA [11.20] was 4.95

###

TESTED_SYSTEM: L-selectin on PBMC (Homo sapiens)
Sequence: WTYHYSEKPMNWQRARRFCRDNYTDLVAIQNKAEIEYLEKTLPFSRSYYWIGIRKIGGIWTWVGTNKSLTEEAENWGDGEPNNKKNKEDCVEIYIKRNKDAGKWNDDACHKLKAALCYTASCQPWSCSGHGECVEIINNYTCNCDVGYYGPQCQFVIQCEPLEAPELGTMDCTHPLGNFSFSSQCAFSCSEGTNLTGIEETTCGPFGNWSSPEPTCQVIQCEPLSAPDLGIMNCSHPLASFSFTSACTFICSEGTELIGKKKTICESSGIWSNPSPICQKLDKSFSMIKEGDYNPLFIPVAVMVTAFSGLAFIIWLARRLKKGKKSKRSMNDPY
EXPERIMENTAL_PARAMETERS: 2'-NH2 all C and U; PBMC binding on ice; competed by DREG-56 anti-L-selectin antibody
METRIC_NAME: Kd (nM)
Express it in nM; write the number only.

Tested system L-selectin on PBMC (Homo sapiens); Kd recorded for GGGAGGACGAUGCGGUAACAACAAUCAAGGCGGGUUYACCGCCCCAGUAUGAGUACAGACGACUCGCCCGA [F14.12] was 1.3

###

TESTED_SYSTEM: L-selectin (LS-Rg) (Homo sapiens) (UniProt P14151)
Sequence: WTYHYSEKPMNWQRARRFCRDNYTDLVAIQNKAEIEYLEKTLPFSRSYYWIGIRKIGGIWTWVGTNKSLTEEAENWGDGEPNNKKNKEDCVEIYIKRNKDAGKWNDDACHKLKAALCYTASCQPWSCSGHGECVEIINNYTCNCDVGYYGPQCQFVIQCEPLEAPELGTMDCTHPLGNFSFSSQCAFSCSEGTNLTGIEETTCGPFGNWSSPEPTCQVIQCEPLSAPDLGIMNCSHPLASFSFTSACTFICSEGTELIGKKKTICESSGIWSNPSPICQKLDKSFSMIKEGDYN
RUN_DESCRIPTION: filter
EXPERIMENTAL_PARAMETERS: 2'-NH2 all C and U; estimate for random RNA
METRIC_NAME: Kd (µM)
Express it in µM; write the number only.

Notebook: GGGAGGACGAUGCGGNNNNNNNNNNNNNNNNNNNNNNNNNNNNNNNNNNNNNNNNCAGACGACUCGCCCGA [random 40N7 RNA pool] , Kd read as 10

###

TESTED_SYSTEM: E-selectin (ES-Rg) (Homo sapiens) (UniProt P16581)
Sequence: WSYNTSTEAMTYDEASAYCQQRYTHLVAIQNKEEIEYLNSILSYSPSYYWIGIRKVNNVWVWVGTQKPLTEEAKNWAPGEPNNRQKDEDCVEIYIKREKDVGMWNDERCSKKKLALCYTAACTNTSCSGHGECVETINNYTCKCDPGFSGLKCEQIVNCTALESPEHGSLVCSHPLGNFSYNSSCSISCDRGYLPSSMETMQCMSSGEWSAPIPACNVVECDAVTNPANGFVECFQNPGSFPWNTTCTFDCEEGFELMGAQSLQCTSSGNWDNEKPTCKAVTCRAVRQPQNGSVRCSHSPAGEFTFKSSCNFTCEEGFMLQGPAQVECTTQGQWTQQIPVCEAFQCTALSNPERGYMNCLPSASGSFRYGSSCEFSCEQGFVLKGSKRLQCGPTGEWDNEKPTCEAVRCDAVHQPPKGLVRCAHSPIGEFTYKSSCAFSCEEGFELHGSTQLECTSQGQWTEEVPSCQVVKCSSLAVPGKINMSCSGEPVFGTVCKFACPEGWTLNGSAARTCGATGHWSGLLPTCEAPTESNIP
RUN_DESCRIPTION: filter
EXPERIMENTAL_PARAMETERS: 2'-NH2 all C and U; 4 C, HSMC
METRIC_NAME: Kd (nM)
Express it in nM; write the number only.

Solved cases below.
GGGAGGACGAUGCGGUCCAGAGCGUGAAGAUCAACGUCCCGGNGUCGAAGACAGACGACUCGCCCGA [F14.70]
5900
GGGAGGACGAUGCGGUAACAACAAUCAAGGCGGGUUYACCGCCCCAGUAUGAGUACAGACGACUCGCCCGA [F14.12]
47

Now let's try a different one.
Notebook: GGGAGGACGAUGCGGAAGUGAAGCUAAAGCGGAGGGCCAUUCAGUUUCNCACCACAGACGACUCGCCCGA [F14.2] , Kd read as 1900
